# experimentalTarget: HNF4alpha2 (COS-7 nuclear extract) (Homo sapiens, UniProt P41235 1-474)
# Sequence: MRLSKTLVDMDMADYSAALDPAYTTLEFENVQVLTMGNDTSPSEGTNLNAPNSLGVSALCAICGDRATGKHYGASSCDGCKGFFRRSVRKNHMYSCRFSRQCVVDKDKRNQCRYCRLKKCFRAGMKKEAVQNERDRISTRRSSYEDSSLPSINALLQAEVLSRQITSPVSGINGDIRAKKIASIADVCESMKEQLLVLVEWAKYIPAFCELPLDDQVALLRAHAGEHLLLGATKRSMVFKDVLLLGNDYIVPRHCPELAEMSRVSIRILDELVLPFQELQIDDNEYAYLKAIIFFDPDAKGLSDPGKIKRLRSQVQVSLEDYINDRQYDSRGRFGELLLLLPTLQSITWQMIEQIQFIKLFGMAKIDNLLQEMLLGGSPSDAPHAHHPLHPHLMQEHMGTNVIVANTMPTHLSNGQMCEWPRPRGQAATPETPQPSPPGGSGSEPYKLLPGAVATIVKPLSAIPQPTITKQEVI
# experiment: protein-binding microarray; COS-7 nuclear extract on double-stranded Agilent 4x180k PBM; binding buffer, salt, pH and temperature not given in the material; high values mean tight binding
# conditionsUsed: chain copies: 2; label: 3' end of strand 1 on the slide; dsDNA, one strand shown
In all, about 18,000 sequences were measured (“log2 normalized intensity”: median about 0.39, highest 2% from about 6.6 on). The entries come from a sample that favours the highest values as a whole.
binding signal under 4 log2 normalized intensity gets y, anything at or over 4 log2 normalized intensity gets n.

> print(dat)
                              residuestring  classlabel
1  ACAGCCTTTTGAGTTTCTACCATAGACCCTGCCTAGGGAGATTAGAGTATCGGTCGA           y
2  CACCTGTGTCAACATGGACTTTGTTGTTTGGCCTAGGGAGATTAGAGTATCGGTCGA           n
3  TTTGCCAAAGCATAGCAAGAGTGACCTTTGGCCTAGGGAGATTAGAGTATCGGTCGA           n
4  CAGCAGACTCAGAAAAATATGTGGACTTCAGCCTAGGGAGATTAGAGTATCGGTCGA           y
5  TAAGTCACTGGGCTGATGACCTTTGACTGAGCCTAGGGAGATTAGAGTATCGGTCGA           n
6  CAGCAGGGCACCGCCTCCACACCCCAGCCTGCCTAGGGAGATTAGAGTATCGGTCGA           y

(Q) Please check: binding signal for GGACTTTGGCCTTACTTGGCCTGTTTGCTGGCCTAGGGAGATTAGAGTATCGGTCGA , strictly under 4 log2 normalized intensity or not?
(A) n

(Q) Is it true that binding signal reported for CTTTAGCACCTTCATCCAAAGATGACCTTTGCCTAGGGAGATTAGAGTATCGGTCGA is less than 4 log2 normalized intensity?
(A) n
